# target.or.system: STK4 (Homo sapiens (Human), UniProt Q13043)
# Sequence (Q13043 whole entry): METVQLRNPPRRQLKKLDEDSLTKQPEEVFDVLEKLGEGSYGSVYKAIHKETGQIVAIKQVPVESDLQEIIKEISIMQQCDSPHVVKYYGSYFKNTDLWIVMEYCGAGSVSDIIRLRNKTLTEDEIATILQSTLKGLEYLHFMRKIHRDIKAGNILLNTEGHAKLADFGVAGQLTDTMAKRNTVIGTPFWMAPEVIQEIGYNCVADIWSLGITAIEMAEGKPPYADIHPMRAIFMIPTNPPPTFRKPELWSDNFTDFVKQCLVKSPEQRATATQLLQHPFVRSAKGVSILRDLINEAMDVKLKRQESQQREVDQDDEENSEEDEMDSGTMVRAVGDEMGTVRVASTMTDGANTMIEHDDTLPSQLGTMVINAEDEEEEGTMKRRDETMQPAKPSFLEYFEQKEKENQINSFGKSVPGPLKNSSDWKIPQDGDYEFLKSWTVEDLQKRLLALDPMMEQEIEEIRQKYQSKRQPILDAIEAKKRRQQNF
# test.method.notes: ADP-Glo kinase assay, STK4
# Type: biochemical
# reported.conditions: ADP-Glo, 50 μM ATP; read-out: STK4 IC50
IC50 reference

Known results for molecules:
{"columns": ["molecule", "IC50"],
 "data": [
  ["Clc1cccc(-c2c[nH]c3nccc(N4CCOCC4)c23)c1", "< 1 µM"],
  ["CS(=O)(=O)c1ccc(-c2c[nH]c3ncnc(N4CCOCC4)c23)cc1", "> 5 µM"],
  ["Clc1cccc(-c2c[nH]c3ncnc(NCCN4CCCC4)c23)c1", "> 5 µM"]
]}

Entry under test: CC(=O)NCC(C)CNc1ncnc2[nH]cc(-c3ccccc3)c12 (stereo not drawn) . Its IC50 was 1 to 5 µM

Entry under test: Fc1cnc(Cl)cc1-c1c[nH]c2ncnc(N3CCOCC3)c12 . Its IC50 was 1 to 5 µM

Entry under test: CC(O)CNc1ncnc2[nH]cc(-c3cccc(Cl)c3)c12 (stereo not drawn) . Its IC50 was < 1 µM

---

# target.or.system: UniProt:Q13188
# Sequence (Q13188 whole entry): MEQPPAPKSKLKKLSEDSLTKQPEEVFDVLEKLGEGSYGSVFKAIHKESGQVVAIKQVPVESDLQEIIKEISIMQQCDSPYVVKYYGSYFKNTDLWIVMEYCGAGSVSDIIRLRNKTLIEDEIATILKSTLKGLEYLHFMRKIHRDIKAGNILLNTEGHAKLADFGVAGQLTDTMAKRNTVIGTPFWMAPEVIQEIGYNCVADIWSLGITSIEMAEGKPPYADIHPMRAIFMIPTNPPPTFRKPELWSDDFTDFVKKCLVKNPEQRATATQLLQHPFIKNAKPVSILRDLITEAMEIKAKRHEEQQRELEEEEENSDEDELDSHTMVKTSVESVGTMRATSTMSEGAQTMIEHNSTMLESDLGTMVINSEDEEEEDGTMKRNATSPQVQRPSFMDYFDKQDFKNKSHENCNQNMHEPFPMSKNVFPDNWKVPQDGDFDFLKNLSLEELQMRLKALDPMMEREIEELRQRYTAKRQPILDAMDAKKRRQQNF
# test.method.notes: ADP-Glo kinase assay, STK3
# Format: biochemical
# reported.conditions: ADP-Glo, 50 μM ATP; read-out: STK3 IC50
quantity.kind: IC50

Known results for compounds:
{"columns": ["compound", "IC50"],
 "data": [
  ["Clc1cccc(-c2csc3ncnc(N4CCOCC4)c23)c1", "> 5 µM"],
  ["Clc1cccc(-c2c[nH]c3nccc(N4CCOCC4)c23)c1", "< 1 µM"],
  ["CCN(CCO)c1ncnc2[nH]cc(-c3cccc(Cl)c3)c12", "< 1 µM"],
  ["COc1cccc(-c2c[nH]c3ncnc(N4CCOCC4)c23)c1", "< 1 µM"],
  ["O=[N+]([O-])c1ccc(Nc2nc(N3CCOCC3)c3c(-c4cccc(Cl)c4)c[nH]c3n2)cc1", "> 5 µM"],
  ["OC1CCN(c2ncnc3[nH]cc(-c4cccc(Cl)c4)c23)CC1", "< 1 µM"],
  ["CCN1CCCC1CNc1ncnc2[nH]cc(-c3cccc(Cl)c3)c12 (centres unmarked)", "> 5 µM"],
  ["COc1ccc(CCNc2ncnc3[nH]cc(-c4cccc(Cl)c4)c23)cc1OC", "> 5 µM"]
]}

Entry under test: CS(=O)(=O)c1cccc(-c2c[nH]c3ncnc(N4CCOCC4)c23)c1 . Its IC50 was > 5 µM

Entry under test: Cc1noc(C)c1-c1c[nH]c2ncnc(N3CCOCC3)c12 . Its IC50 was > 5 µM

Entry under test: Clc1cccc(-c2c[nH]c3ncnc(N4CCCC4)c23)c1 . Its IC50 was < 1 µM

---

pIC50 reference
# target.or.system: STK4 (Homo sapiens (Human), UniProt Q13043)
# test.method.notes: ADP-Glo kinase assay, STK4
# Type: biochemical
# reported.conditions: ADP-Glo, 50 μM ATP; read-out: STK4 IC50
pIC50: −log10 of the molar value.

Known results for compounds:
{"columns": ["compound", "pIC50"],
 "data": [
  ["Clc1cccc(-c2c[nH]c3ncnc(NCc4ccncc4)c23)c1", "5.30 to 6.00"],
  ["CCN(CC)c1ncnc2[nH]cc(-c3cccc(Cl)c3)c12", "> 6.00"],
  ["O=C1CCN(c2ncnc3[nH]cc(-c4cccc(Cl)c4)c23)CC1", "> 6.00"]
]}

Measured on STK4 (Homo sapiens (Human), UniProt Q13043), Clc1cccc(-c2c[nH]c3ncnc(NCc4cnc[nH]4)c23)c1 has a documented pIC50 of < 5.30

Measured on STK4 (Homo sapiens (Human), UniProt Q13043), COCC(C)CNc1ncnc2[nH]cc(-c3cccc(Cl)c3)c12 (stereo not drawn) has a documented pIC50 of > 6.00

Measured on STK4 (Homo sapiens (Human), UniProt Q13043), Fc1c(-c2c[nH]c3ncnc(N4CCOCC4)c23)ccnc1Cl has a documented pIC50 of < 5.30

Measured on STK4 (Homo sapiens (Human), UniProt Q13043), Clc1cccc(-c2c[nH]c3ncnc(NCc4nccs4)c23)c1 has a documented pIC50 of < 5.30

Measured on STK4 (Homo sapiens (Human), UniProt Q13043), CC(=O)NCC(C)CNc1ncnc2[nH]cc(-c3cccc(Cl)c3)c12 (stereo not drawn) has a documented pIC50 of > 6.00

Measured on STK4 (Homo sapiens (Human), UniProt Q13043), Clc1cccc(-c2c[nH]c3ncnc(NCC4CCOCC4)c23)c1 has a documented pIC50 of > 6.00

Measured on STK4 (Homo sapiens (Human), UniProt Q13043), CN(C)CCNc1ncnc2[nH]cc(-c3cccc(Cl)c3)c12 has a documented pIC50 of < 5.30

Measured on STK4 (Homo sapiens (Human), UniProt Q13043), Clc1cccc(-c2c[nH]c3ncnc(N4CCC(N5CCCCC5)CC4)c23)c1 has a documented pIC50 of 5.30 to 6.00

---

concentration at 1 h reference
# test.method.notes: In vivo plasma and liver concentrations, 20 mg/kg intraperitoneal
# reported.conditions: female, C57BL/6J, mouse, ip, 20 mg/kg
// units = µM; emit number, no label

{"columns": ["molecule", "value.unit", "concentration at 1 h"],
 "data": [
  ["Clc1cccc(-c2c[nH]c3ncnc(N4CCOCC4)c23)c1 [Compound 6]", "µM", 15.3],
  ["CC(CO)CN(C)c1ncnc2[nH]cc(-c3cccc(Cl)c3)c12 (stereo not shown) [Compound 121]", "µM", 0.006],
  ["OCCCNc1ncnc2[nH]cc(-c3cccc(Cl)c3)c12 [Compound 119]", "µM", 0.003],
  ["Clc1cccc(-c2c[nH]c3ncnc(N4CCCCC4)c23)c1 [Compound 15]", "µM", 6.5],
  ["CC1(N)CCN(c2ncnc3[nH]cc(-c4cccc(Cl)c4)c23)CC1 [Compound 102]", "µM", 15.9],
  ["Clc1cccc(-c2c[nH]c3nccc(N4CCOCC4)c23)c1 [Compound 23]", "µM", 16.6]
]}

With those in mind, consider the next molecule.
Entry under test: OC1CCN(c2ncnc3[nH]cc(-c4cccc(Cl)c4)c23)CC1 [Compound 16] . Its concentration at 1 h was 5.9

---

# target.or.system: STK4 (Homo sapiens (Human))
# test.method.notes: ADP-Glo kinase assay, STK4
# Format: biochemical
# reported.conditions: ADP-Glo, 50 μM ATP; read-out: STK4 IC50
pIC50: −log10 of the molar value.
quantity.kind: pIC50

{"columns": ["molecule", "pIC50"],
 "data": [
  ["Clc1cccc(-c2c[nH]c3ncnc(NCC4CCCCCC4)c23)c1", "< 5.30"],
  ["CC(CN)CNc1ncnc2[nH]cc(-c3cccc(Cl)c3)c12 (centres unmarked)", "> 6.00"],
  ["O=C(O)c1ccc(Nc2nc(N3CCOCC3)c3c(-c4cccc(Cl)c4)c[nH]c3n2)cc1", "> 6.00"]
]}

Entry under test: COc1cccc(CNc2ncnc3[nH]cc(-c4cccc(Cl)c4)c23)c1 . Its pIC50 was < 5.30

Entry under test: Clc1ccc(-c2c[nH]c3ncnc(N4CCOCC4)c23)cc1Cl . Its pIC50 was 5.30 to 6.00

Entry under test: Clc1ccccc1-c1c[nH]c2ncnc(N3CCOCC3)c12 . Its pIC50 was 5.30 to 6.00

Entry under test: CCN(CC)CCNc1ncnc2[nH]cc(-c3cccc(Cl)c3)c12 . Its pIC50 was < 5.30

Entry under test: CC(=O)N1CCN(c2ncnc3[nH]cc(-c4cccc(Cl)c4)c23)CC1 . Its pIC50 was > 6.00

---

# target.or.system: STK4 (Homo sapiens (Human), UniProt Q13043)
# test.method.notes: ADP-Glo kinase assay, STK4
# Type: biochemical
# reported.conditions: ADP-Glo, 50 μM ATP; read-out: STK4 IC50
quantity.kind: IC50

Known results for molecules:
{"columns": ["molecule", "reported.result"],
 "data": [
  ["CS(=O)(=O)c1cccc(-c2c[nH]c3ncnc(N4CCOCC4)c23)c1", "> 5000 nM"],
  ["CC(CNc1ncnc2[nH]cc(-c3cccc(Cl)c3)c12)C(=O)O (stereo not shown)", "1000 to 5000 nM"],
  ["OCCNc1ncnc2[nH]cc(-c3cccc(Cl)c3)c12", "< 1000 nM"],
  ["CC(=O)NC1(C)CCN(c2ncnc3[nH]cc(-c4cccc(Cl)c4)c23)CC1", "1000 to 5000 nM"],
  ["Clc1cccc(-c2c[nH]c3ncnc(NCCc4ccccn4)c23)c1", "< 1000 nM"],
  ["C=CCNc1ncnc2[nH]cc(-c3cccc(Cl)c3)c12", "< 1000 nM"],
  ["CN1CCC(Nc2ncnc3[nH]cc(-c4cccc(Cl)c4)c23)CC1", "1000 to 5000 nM"],
  ["Clc1cccc(-c2c[nH]c3ncnc(NCc4ccc(Cl)nc4)c23)c1", "> 5000 nM"],
  ["Clc1cccc(-c2c[nH]c3ncnc(NCc4ccoc4)c23)c1", "< 1000 nM"],
  ["CNCC(C)CNc1ncnc2[nH]cc(-c3cccc(Cl)c3)c12 (stereo not shown)", "> 5000 nM"]
]}

Measured on STK4 (Homo sapiens (Human), UniProt Q13043), CCN1CCN(c2ncnc3[nH]cc(-c4cccc(Cl)c4)c23)CC1 has a documented IC50 of > 5000 nM

Measured on STK4 (Homo sapiens (Human), UniProt Q13043), c1cc(-c2c[nH]c3ncnc(N4CCOCC4)c23)ccn1 has a documented IC50 of > 5000 nM

Measured on STK4 (Homo sapiens (Human), UniProt Q13043), Clc1cccc(-c2c[nH]c3ncnc(N4CCC4)c23)c1 has a documented IC50 of 1000 to 5000 nM

Measured on STK4 (Homo sapiens (Human), UniProt Q13043), c1nc(N2CCOCC2)c2c(-c3cnoc3)c[nH]c2n1 has a documented IC50 of < 1000 nM

Measured on STK4 (Homo sapiens (Human), UniProt Q13043), CC(CO)CNc1ncnc2[nH]cc(-c3cccc(Cl)c3)c12 (stereo not shown) has a documented IC50 of < 1000 nM

Measured on STK4 (Homo sapiens (Human), UniProt Q13043), c1ccc(-c2c[nH]c3ncnc(N4CCOCC4)c23)cc1 has a documented IC50 of < 1000 nM
